Cited source: patent US11066404B2

target: CDK2/Cyclin E1 (Homo sapiens (Human), UniProt P24941); assay: CDK2/Cyclin E1 HTRF Enzyme Activity Assay; settings: 1 mM ATP
quantity: IC50

Q. Give IC50 for the following compound: CC1(C)Cc2cnc(NC3CCN(S(C)(=O)=O)CC3)nc2N(c2ccccc2)C1=O [Example 3]
A. 100 to 500 nM

Q. Look up IC50 of CC1(C)Cc2cnc(NC3CCN(S(C)(=O)=O)CC3)nc2N(C2CCOC2)C1=O (racemic) [Example 6] and report it.
A. 100 to 500 nM

Q. Consider the compound Cn1nccc1CN1C(=O)C(C)(C)Cc2cnc(NC3CCN(S(C)(=O)=O)CC3)nc21 [Example 5] and give its recorded IC50.
A. 100 to 500 nM

Q. Recall and state the measured IC50 for CC1(C)Cc2cnc(Nc3ccc(S(N)(=O)=O)cc3)nc2N(C2CCCC2)C1=O [Example 1] .
A. ≤ 10 nM

Q. Complete the entry with IC50 for CCC(C(F)F)N1C(=O)C(C)(C)Cc2cnc(NC3CCN(S(C)(=O)=O)CC3)nc21 (racemic) [Example 4]
A. 10 to 100 nM

Q. Hello, please tell me recorded IC50 for this one: CC1(C)Cc2cnc(NC3CCN(S(C)(=O)=O)CC3)nc2N(C2CCCC2)C1=O [Example 2]
A. ≤ 10 nM
